From: the supplement of paper PMC11061612

# Test system: KARPAS-1106P (B-Cell Non-Hodgkin's Lymphoma)
# test-protocol: Bliss excess, mean over the matrix (fraction); higher = more synergy
// map Bliss excess to label using low = under -0.02, mid = from -0.02 up to 0.02, high = 0.02 and over

[[record]]
compound = "CC1(C)CCC(CN2CCN(c3ccc(C(=O)NS(=O)(=O)c4ccc(NCC5CCOCC5)c([N+](=O)[O-])c4)c(Oc4cnc5[nH]ccc5c4)c3)CC2)=C(c2ccc(Cl)cc2)C1 [Venetoclax] + C1CN(CCC1(C(=O)N[C@@H](CCO)C2=CC=C(C=C2)Cl)N)C3=NC=NC4=C3C=CN4 [Capivasertib] (first compound max 1 µM, 7x7, partner max 3 µM)"
class_label = "low"

[[record]]
compound = "NC1(C(=O)N[C@@H](CCO)c2ccc(Cl)cc2)CCN(c2ncnc3[nH]ccc23)CC1 [Capivasertib] + CC(=O)c1c(C)c2cnc(Nc3ccc(N4CCNCC4)cn3)nc2n(C2CCCC2)c1=O [Palbociclib] (first compound max 10 µM, 7x7, partner max 10 µM)"
class_label = "mid"

[[record]]
compound = "Cc1c2c(nn1C)CSCc1cc(n(C)n1)CSc1cc(c3ccccc3c1)OCCCc1c(C(=O)O)n(C)c3c-2c(Cl)ccc13 [AZD5991] + C[C@@H]1COCCN1C2=NC(=NC(=C2)C3(CC3)[S@](=N)(=O)C)C4=C5C=CNC5=NC=C4 [AZD6738] (first compound max 1 µM, 7x7, partner max 10 µM)"
class_label = "mid"

[[record]]
compound = "CN(CCO)CC[C@H](CSc1ccccc1)Nc1ccc(S(=O)(=O)NC(=O)c2ccc(N3CCC([C@@H](O)c4ccccc4-c4ccc(Cl)cc4)CC3)cc2)cc1S(=O)(=O)C(F)(F)F [AZD4320] + CCN(CCO)CCCOc1ccc2c(Nc3cc(CC(=O)Nc4cccc(F)c4)[nH]n3)ncnc2c1 [AZD2811] (first compound max 1 µM, 7x7, partner max 1 µM)"
class_label = "high"

[[record]]
compound = "CC1(C)CCC(CN2CCN(c3ccc(C(=O)NS(=O)(=O)c4ccc(NCC5CCOCC5)c([N+](=O)[O-])c4)c(Oc4cnc5[nH]ccc5c4)c3)CC2)=C(c2ccc(Cl)cc2)C1 [Venetoclax] + CCN(CCO)CCCOc1ccc2c(Nc3cc(CC(=O)Nc4cccc(F)c4)[nH]n3)ncnc2c1 [AZD2811] (first compound max 1 µM, 7x7, partner max 1 µM)"
class_label = "mid"

[[record]]
compound = "CN(CCO)CC[C@H](CSc1ccccc1)Nc1ccc(S(=O)(=O)NC(=O)c2ccc(N3CCC([C@@H](O)c4ccccc4-c4ccc(Cl)cc4)CC3)cc2)cc1S(=O)(=O)C(F)(F)F [AZD4320] + C1CN(CCC1(C(=O)N[C@@H](CCO)C2=CC=C(C=C2)Cl)N)C3=NC=NC4=C3C=CN4 [Capivasertib] (first compound max 1 µM, 7x7, partner max 3 µM)"
class_label = "low"

[[record]]
compound = "Cc1cc2ncnn2cc1Nc1ncc2c(n1)n(C1CCOCC1)c(=O)n2C [AZD7648] + CCN(CCO)CCCOc1ccc2c(Nc3cc(CC(=O)Nc4cccc(F)c4)[nH]n3)ncnc2c1 [AZD2811] (first compound max 10 µM, 7x7, partner max 1 µM)"
class_label = "high"

[[record]]
compound = "NC1(C(=O)N[C@@H](CCO)c2ccc(Cl)cc2)CCN(c2ncnc3[nH]ccc23)CC1 [Capivasertib] + Cn1cnc2c(F)c(Nc3ccc(Br)cc3Cl)c(C(=O)NOCCO)cc21 [Selumetinib] (first compound max 10 µM, 7x7, partner max 10 µM)"
class_label = "high"

[[record]]
compound = "N#Cc1cnc(Nc2cc(NC[C@H]3CNCCO3)c(C(F)(F)F)cn2)cn1 [SRA737] + Nc1ccn([C@@H]2O[C@H](CO)[C@@H](O)C2(F)F)c(=O)n1 [Gemcitabine] (first compound max 10 µM, 7x7, partner max 0.3 µM)"
class_label = "mid"

[[record]]
compound = "COc1nnc2ccc(N3CCC(c4ccc(OCCN5CCN(C)C(=O)[C@H]5C)cc4)CC3)nn12 [AZD5153] + Cc1c2c(nn1C)CSCc1cc(n(C)n1)CSc1cc(c3ccccc3c1)OCCCc1c(C(=O)O)n(C)c3c-2c(Cl)ccc13 [AZD5991] (first compound max 1 µM, 7x7, partner max 1 µM)"
class_label = "mid"

[[record]]
compound = "C[C@@H](c1ccc2nccn2c1)n1nnc2ncc(-c3cnn(C)c3)nc21 [Savolitinib] + CC1(C)CCC(CN2CCN(c3ccc(C(=O)NS(=O)(=O)c4ccc(NCC5CCOCC5)c([N+](=O)[O-])c4)c(Oc4cnc5[nH]ccc5c4)c3)CC2)=C(c2ccc(Cl)cc2)C1 [Venetoclax] (first compound max 1 µM, 7x7, partner max 1 µM)"
class_label = "mid"

[[record]]
compound = "CN(CCO)CC[C@H](CSc1ccccc1)Nc1ccc(S(=O)(=O)NC(=O)c2ccc(N3CCC([C@@H](O)c4ccccc4-c4ccc(Cl)cc4)CC3)cc2)cc1S(=O)(=O)C(F)(F)F [AZD4320] + C[C@@H](Nc1cc(F)cc(F)c1)c1cc(C(=O)N(C)C)cc2c(=O)cc(N3CCOCC3)oc12 [AZD8186] (first compound max 1 µM, 7x7, partner max 3 µM)"
class_label = "high"


----------
# Tested on: G-292-Clone-A141B1 (Osteosarcoma)
# test-protocol: combination Emax (second highest fraction inhibited in the dose matrix, 72 h); higher = more inhibition; extreme values may be limits of the assay
Consider the following compounds and their measured combination Emax readings.
attribute-measured: combination Emax

[[record]]
compound = "CN(CCO)CC[C@H](CSc1ccccc1)Nc1ccc(S(=O)(=O)NC(=O)c2ccc(N3CCC([C@@H](O)c4ccccc4-c4ccc(Cl)cc4)CC3)cc2)cc1S(=O)(=O)C(F)(F)F [AZD4320] + Nc1ccn([C@@H]2O[C@H](CO)[C@@H](O)C2(F)F)c(=O)n1 [Gemcitabine] (first compound max 1 µM, 7x7, partner max 0.3 µM)"
result = 0.511

[[record]]
compound = "Cc1cc2ncnn2cc1Nc1ncc2c(n1)n(C1CCOCC1)c(=O)n2C [AZD7648] + C[C@@H]1COCCN1C2=NC(=NC(=C2)C3(CC3)[S@](=N)(=O)C)C4=C5C=CNC5=NC=C4 [AZD6738] (first compound max 10 µM, 7x7, partner max 10 µM)"
result = 0.334

[[record]]
compound = "CC1(C)CCC(CN2CCN(c3ccc(C(=O)NS(=O)(=O)c4ccc(NCC5CCOCC5)c([N+](=O)[O-])c4)c(Oc4cnc5[nH]ccc5c4)c3)CC2)=C(c2ccc(Cl)cc2)C1 [Venetoclax] + Cn1cnc2c(F)c(Nc3ccc(Br)cc3Cl)c(C(=O)NOCCO)cc21 [Selumetinib] (first compound max 1 µM, 7x7, partner max 3 µM)"
result = 0.146

[[record]]
compound = "Cc1cc2ncnn2cc1Nc1ncc2c(n1)n(C1CCOCC1)c(=O)n2C [AZD7648] + CN(C)CCCOc1ccc(-c2ccc3ncc4c(c3c2)n(C2CCOCC2)c(=O)n4C)cn1 [AZD0156] (first compound max 10 µM, 7x7, partner max 1 µM)"
result = 0.341


----------
# Test system: JiyoyeP-2003 (Burkitt's Lymphoma)
# test-protocol: combination Emax (second highest fraction inhibited in the dose matrix, 72 h); higher = more inhibition; extreme values may be limits of the assay
attribute-measured: combination Emax

[[record]]
molecule = "Cc1c2c(nn1C)CSCc1cc(n(C)n1)CSc1cc(c3ccccc3c1)OCCCc1c(C(=O)O)n(C)c3c-2c(Cl)ccc13 [AZD5991] + CC1(C)CCC(CN2CCN(c3ccc(C(=O)NS(=O)(=O)c4ccc(NCC5CCOCC5)c([N+](=O)[O-])c4)c(Oc4cnc5[nH]ccc5c4)c3)CC2)=C(c2ccc(Cl)cc2)C1 [Venetoclax] (first compound max 1 µM, 7x7, partner max 1 µM)"
attribute_measured = "combination Emax"
result = 0.732

[[record]]
molecule = "C[C@@H](c1ccc2nccn2c1)n1nnc2ncc(-c3cnn(C)c3)nc21 [Savolitinib] + CN(CC[C@H](CSC1=CC=CC=C1)NC2=C(C=C(C=C2)S(=O)(=O)NC(=O)C3=CC=C(C=C3)N4CCC(CC4)[C@H](C5=CC=CC=C5C6=CC=C(C=C6)Cl)O)S(=O)(=O)C(F)(F)F)CCO [AZD4320] (first compound max 1 µM, 7x7, partner max 1 µM)"
attribute_measured = "combination Emax"
result = 0.439

[[record]]
molecule = "Cn1cnc2c(F)c(Nc3ccc(Br)cc3Cl)c(C(=O)NOCCO)cc21 [Selumetinib] + CCN(CCO)CCCOc1ccc2c(Nc3cc(CC(=O)Nc4cccc(F)c4)[nH]n3)ncnc2c1 [AZD2811] (first compound max 10 µM, 7x7, partner max 1 µM)"
attribute_measured = "combination Emax"
result = 0.235


----------
# Tested on: MDA-MB-157 (Breast Carcinoma)
# test-protocol: Bliss excess, mean over the matrix (fraction); higher = more synergy
Answer Condition not met if Bliss excess is under -0.02, and Condition met if it is -0.02 or more.

[[record]]
compound = "CN(C)CCCOc1ccc(-c2ccc3ncc4c(c3c2)n(C2CCOCC2)c(=O)n4C)cn1 [AZD0156] + O=C(c1cc(Cc2n[nH]c(=O)c3ccccc23)ccc1F)N1CCN(C(=O)C2CC2)CC1 [Olaparib] (first compound max 3 µM, partner max 3 µM)"
class_label = "Condition not met"

[[record]]
compound = "Cc1cc2ncnn2cc1Nc1ncc2c(n1)n(C1CCOCC1)c(=O)n2C [AZD7648] + CN(C)CCCOc1ccc(-c2ccc3ncc4c(c3c2)n(C2CCOCC2)c(=O)n4C)cn1 [AZD0156] (first compound max 10 µM, 7x7, partner max 1 µM)"
class_label = "Condition met"

[[record]]
compound = "COc1nnc2ccc(N3CCC(c4ccc(OCCN5CCN(C)C(=O)[C@H]5C)cc4)CC3)nn12 [AZD5153] + C=CCn1c(=O)c2cnc(Nc3ccc(N4CCN(C)CC4)cc3)nc2n1-c1cccc(C(C)(C)O)n1 [AZD1775] (first compound max 1 µM, partner max 1 µM)"
class_label = "Condition not met"

[[record]]
compound = "COc1cccc(OCCCN)c1-c1cc(Nc2cnc(C#N)cn2)n[nH]1 [Prexasertib] + C[C@@H]1COCCN1C2=NC(=NC(=C2)C3(CC3)[S@](=N)(=O)C)C4=C5C=CNC5=NC=C4 [AZD6738] (first compound max 1 µM, 7x7, partner max 10 µM)"
class_label = "Condition not met"

[[record]]
compound = "NC1(C(=O)N[C@@H](CCO)c2ccc(Cl)cc2)CCN(c2ncnc3[nH]ccc23)CC1 [Capivasertib] + CC(C)n1c(=O)n(C)c2cnc3cc(F)c(-c4ccc(OCCCN5CCCCC5)nc4)cc3c21 [AZD1390] (first compound max 10 µM, 7x7, partner max 0.3 µM)"
class_label = "Condition not met"

[[record]]
compound = "CN(C)CCCOc1ccc(-c2ccc3ncc4c(c3c2)n(C2CCOCC2)c(=O)n4C)cn1 [AZD0156] + C=CCn1c(=O)c2cnc(Nc3ccc(N4CCN(C)CC4)cc3)nc2n1-c1cccc(C(C)(C)O)n1 [AZD1775] (first compound max 1 µM, partner max 1 µM)"
class_label = "Condition met"

[[record]]
compound = "COc1cc2ncnc(Nc3ccc(F)c(Cl)c3)c2cc1OCCCN1CCOCC1 [Gefitinib] + CC(C)n1c(=O)n(C)c2cnc3cc(F)c(-c4ccc(OCCCN5CCCCC5)nc4)cc3c21 [AZD1390] (first compound max 10 µM, 7x7, partner max 0.3 µM)"
class_label = "Condition not met"

[[record]]
compound = "C[C@@H](Oc1cc(-c2cnn(C3CCNCC3)c2)cnc1N)c1c(Cl)ccc(F)c1Cl [Crizotinib] + CC1=C(C(=CC=C1)Cl)NC(=O)C2=CN=C(S2)NC3=CC(=NC(=N3)C)N4CCN(CC4)CCO [Dasatinib] (first compound max 10 µM, 7x7, partner max 2 µM)"
class_label = "Condition met"

[[record]]
compound = "CN(CCO)CC[C@H](CSc1ccccc1)Nc1ccc(S(=O)(=O)NC(=O)c2ccc(N3CCC([C@@H](O)c4ccccc4-c4ccc(Cl)cc4)CC3)cc2)cc1S(=O)(=O)C(F)(F)F [AZD4320] + C1CN(CCC1(C(=O)N[C@@H](CCO)C2=CC=C(C=C2)Cl)N)C3=NC=NC4=C3C=CN4 [Capivasertib] (first compound max 1 µM, 7x7, partner max 3 µM)"
class_label = "Condition met"

[[record]]
compound = "N#Cc1cnc(Nc2cc(NC[C@H]3CNCCO3)c(C(F)(F)F)cn2)cn1 [SRA737] + Nc1ccn([C@@H]2O[C@H](CO)[C@@H](O)C2(F)F)c(=O)n1 [Gemcitabine] (first compound max 10 µM, 7x7, partner max 0.3 µM)"
class_label = "Condition met"

[[record]]
compound = "Cc1cc2ncnn2cc1Nc1ncc2c(n1)n(C1CCOCC1)c(=O)n2C [AZD7648] + O=C(c1cc(Cc2n[nH]c(=O)c3ccccc23)ccc1F)N1CCN(C(=O)C2CC2)CC1 [Olaparib] (first compound max 10 µM, 7x7, partner max 10 µM)"
class_label = "Condition not met"

[[record]]
compound = "CN(CCO)CC[C@H](CSc1ccccc1)Nc1ccc(S(=O)(=O)NC(=O)c2ccc(N3CCC([C@@H](O)c4ccccc4-c4ccc(Cl)cc4)CC3)cc2)cc1S(=O)(=O)C(F)(F)F [AZD4320] + CC(=O)O[C@H]1C(=O)[C@@]2(C)[C@H]([C@H](OC(=O)c3ccccc3)[C@]3(O)C[C@H](OC(=O)[C@H](O)[C@@H](NC(=O)c4ccccc4)c4ccccc4)C(C)=C1C3(C)C)[C@]1(OC(C)=O)CO[C@@H]1C[C@@H]2O [Paclitaxel] (first compound max 1 µM, 7x7, partner max 3 µM)"
class_label = "Condition met"

[[record]]
compound = "C=CCn1c(=O)c2cnc(Nc3ccc(N4CCN(C)CC4)cc3)nc2n1-c1cccc(C(C)(C)O)n1 [AZD1775] + C1CN(CCC1(C(=O)N[C@@H](CCO)C2=CC=C(C=C2)Cl)N)C3=NC=NC4=C3C=CN4 [Capivasertib] (first compound max 3 µM, partner max 3 µM)"
class_label = "Condition not met"

